Measurement target: TEK (human)
Method: radiometric filter-binding kinase assay
Recorded conditions: compound 1.0 µM
Measure name: residual activity (%)

[
  {
    "Compound": "CCn1c(-c2nonc2N)nc2cncc(CNC3CCNCC3)c21",
    "Measure name": "residual activity",
    "Test result": 116
  },
  {
    "Compound": "O=C(NOCC(O)CO)c1ccc(F)c(F)c1Nc1ccc(I)cc1Cl (stereo unspecified)",
    "Measure name": "residual activity",
    "Test result": 106
  },
  {
    "Compound": "Cc1nc(-c2ccc(OCC(C)C)c(C#N)c2)sc1C(=O)O",
    "Measure name": "residual activity",
    "Test result": 78
  },
  {
    "Compound": "Cc1ccc(-c2ccc3c(ccc4sc5c(c43)NC[C@@H](C)NC5=O)n2)cn1",
    "Measure name": "residual activity",
    "Test result": 86
  },
  {
    "Compound": "CCNc1nc(Nc2cc(F)c(C(=O)N3CCOCC3)cc2OC)ncc1C(F)(F)F",
    "Measure name": "residual activity",
    "Test result": 100
  },
  {
    "Compound": "C=C1C(=O)OC2C1CC/C(C)=C/CCC1(C)OC21 (stereo unspecified)",
    "Measure name": "residual activity",
    "Test result": 99
  },
  {
    "Compound": "NCC(=O)Nc1ccc(-n2nc(C(F)(F)F)cc2-c2ccc3c(ccc4ccccc43)c2)cc1",
    "Measure name": "residual activity",
    "Test result": 103
  },
  {
    "Compound": "Cc1ccc(=O)n(-c2ccccc2)c1",
    "Measure name": "residual activity",
    "Test result": 110
  },
  {
    "Compound": "O=C(Nc1cccnc1)c1cc(-c2ccnc(F)c2)ccc1OCc1ccccc1",
    "Measure name": "residual activity",
    "Test result": 119
  },
  {
    "Compound": "O=C(N[C@@H](COc1ccc2[nH]c(=O)[nH]c2c1)c1ccccc1)c1cccn(Cc2ccc(F)c(F)c2)c1=O",
    "Measure name": "residual activity",
    "Test result": 100
  },
  {
    "Compound": "CCCCCc1ccc(/C=C/[C@H](O)[C@@H](CO)NC)cc1",
    "Measure name": "residual activity",
    "Test result": 118
  }
]

====

Listing of entries alongside the reported residual activity.
Measurement target: STK3 (human) (UniProt Q13188)
Sequence (Q13188 whole entry, looked up): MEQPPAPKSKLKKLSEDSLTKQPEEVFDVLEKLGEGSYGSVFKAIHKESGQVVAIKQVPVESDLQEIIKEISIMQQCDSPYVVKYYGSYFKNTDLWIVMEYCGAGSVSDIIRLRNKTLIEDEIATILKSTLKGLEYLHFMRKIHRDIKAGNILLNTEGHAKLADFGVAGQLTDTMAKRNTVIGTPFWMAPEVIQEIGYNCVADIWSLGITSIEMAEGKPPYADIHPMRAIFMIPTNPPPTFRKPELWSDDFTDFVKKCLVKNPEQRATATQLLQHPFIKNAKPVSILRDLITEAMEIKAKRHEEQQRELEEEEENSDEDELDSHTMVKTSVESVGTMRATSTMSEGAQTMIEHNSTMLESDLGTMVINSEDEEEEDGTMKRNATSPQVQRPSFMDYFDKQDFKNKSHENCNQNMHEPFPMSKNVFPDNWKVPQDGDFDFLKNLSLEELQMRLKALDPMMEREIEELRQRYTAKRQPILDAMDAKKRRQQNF
Method: radiometric filter-binding kinase assay
Recorded conditions: compound 10.0 µM

[
  {
    "Compound": "O=S(=O)(c1ccc(F)c2nonc12)N1CCN(c2ncc(C(F)(F)F)cc2Cl)CC1",
    "Measurement target": "STK3 (human) (UniProt Q13188)",
    "residual activity / %": 82
  },
  {
    "Compound": "O=C1NC(=S)N[C@@H]1Cc1c[nH]c2ccccc12",
    "Measurement target": "STK3 (human) (UniProt Q13188)",
    "residual activity / %": 102
  },
  {
    "Compound": "O=C(Nc1ccccc1-c1cn2c(CN3CCNCC3)csc2n1)c1cnc2ccccc2n1",
    "Measurement target": "STK3 (human) (UniProt Q13188)",
    "residual activity / %": 92
  },
  {
    "Compound": "Cc1ccc(=O)n(-c2ccccc2)c1",
    "Measurement target": "STK3 (human) (UniProt Q13188)",
    "residual activity / %": 112
  },
  {
    "Compound": "NS(=O)(=O)OC[C@@H]1C[C@@H](n2ccc3c(N[C@H]4CCc5ccccc54)ncnc32)C[C@@H]1O",
    "Measurement target": "STK3 (human) (UniProt Q13188)",
    "residual activity / %": 84
  },
  {
    "Compound": "N#Cc1c(C2CCNCC2)cc(-c2c(O)cccc2OCC2CC2)nc1N",
    "Measurement target": "STK3 (human) (UniProt Q13188)",
    "residual activity / %": 34
  },
  {
    "Compound": "c1ccc2c(-c3cnn4cc(-c5ccc(N6CCNCC6)cc5)cnc34)ccnc2c1",
    "Measurement target": "STK3 (human) (UniProt Q13188)",
    "residual activity / %": 76
  },
  {
    "Compound": "Cc1ccc(Sc2cnc(Nc3cccc(Br)n3)s2)cc1C(=O)N1CCN(C(=O)CN)CC1",
    "Measurement target": "STK3 (human) (UniProt Q13188)",
    "residual activity / %": 3
  },
  {
    "Compound": "Cn1nc(Nc2ccc(F)cc2)c2c(N)ncnc21",
    "Measurement target": "STK3 (human) (UniProt Q13188)",
    "residual activity / %": 104
  },
  {
    "Compound": "O=C(N[C@@H](COc1ccc2[nH]c(=O)[nH]c2c1)c1ccccc1)c1cccn(Cc2ccc(F)c(F)c2)c1=O",
    "Measurement target": "STK3 (human) (UniProt Q13188)",
    "residual activity / %": 100
  },
  {
    "Compound": "Oc1ccc2ccccc2c1SSc1c(O)ccc2ccccc12",
    "Measurement target": "STK3 (human) (UniProt Q13188)",
    "residual activity / %": 51
  },
  {
    "Compound": "NC1(c2ccc(-c3nc4ccn5c(=O)[nH]nc5c4cc3-c3ccccc3)cc2)CCC1",
    "Measurement target": "STK3 (human) (UniProt Q13188)",
    "residual activity / %": 94
  },
  {
    "Compound": "CC(C)C[C@H](NC(=O)CNC(=O)c1cc(Cl)ccc1Cl)B1OC(=O)CC(CC(=O)O)(C(=O)O)O1 (stereo partly specified)",
    "Measurement target": "STK3 (human) (UniProt Q13188)",
    "residual activity / %": 100
  },
  {
    "Compound": "COc1cc(C(=O)N2CCOCC2)c(F)cc1Nc1ncc(C(F)(F)F)c(NC2CC2)n1",
    "Measurement target": "STK3 (human) (UniProt Q13188)",
    "residual activity / %": 92
  },
  {
    "Compound": "NC(=O)Nc1ccc2c(c1)/C(=C/c1cc(-c3cccnc3)c[nH]1)C(=O)N2",
    "Measurement target": "STK3 (human) (UniProt Q13188)",
    "residual activity / %": 0
  },
  {
    "Compound": "O=C(O)c1ccc(-c2c[nH]c3ncc(-c4ccccc4)cc23)cc1C1CCCC1",
    "Measurement target": "STK3 (human) (UniProt Q13188)",
    "residual activity / %": 4
  },
  {
    "Compound": "NC(=O)c1c(NC(=O)C2CC2)sc2c1CCCC2",
    "Measurement target": "STK3 (human) (UniProt Q13188)",
    "residual activity / %": 53
  },
  {
    "Compound": "Cc1ccc2c(c1)C(=O)[C@@]1(O)CCN(c3ccccc3)C1=N2",
    "Measurement target": "STK3 (human) (UniProt Q13188)",
    "residual activity / %": 104
  },
  {
    "Compound": "Nc1cccc2c1CN(C1CCC(=O)NC1=O)C2=O (stereo unspecified)",
    "Measurement target": "STK3 (human) (UniProt Q13188)",
    "residual activity / %": 101
  },
  {
    "Compound": "CCCCCc1ccc(/C=C/[C@H](O)[C@@H](CO)NC)cc1",
    "Measurement target": "STK3 (human) (UniProt Q13188)",
    "residual activity / %": 94
  },
  {
    "Compound": "CCNc1nc(Nc2cc(F)c(C(=O)N3CCOCC3)cc2OC)ncc1C(F)(F)F",
    "Measurement target": "STK3 (human) (UniProt Q13188)",
    "residual activity / %": 73
  }
]

====

Measurement target: MAPKAPK2 (human) (UniProt P49137)
Sequence (P49137 whole entry, looked up): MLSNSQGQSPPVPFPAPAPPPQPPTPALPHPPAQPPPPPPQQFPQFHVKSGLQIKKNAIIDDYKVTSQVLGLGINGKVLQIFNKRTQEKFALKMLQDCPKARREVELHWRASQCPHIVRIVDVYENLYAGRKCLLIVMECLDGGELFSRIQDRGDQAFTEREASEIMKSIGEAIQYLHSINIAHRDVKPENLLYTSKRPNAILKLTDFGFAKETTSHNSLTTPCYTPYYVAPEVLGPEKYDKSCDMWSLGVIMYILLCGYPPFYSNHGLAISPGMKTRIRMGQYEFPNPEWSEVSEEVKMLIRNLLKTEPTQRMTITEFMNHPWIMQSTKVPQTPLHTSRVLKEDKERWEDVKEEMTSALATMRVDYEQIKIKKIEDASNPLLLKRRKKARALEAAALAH
Method: radiometric filter-binding kinase assay
Recorded conditions: compound 10.0 µM
Listing of entries alongside the reported residual activity.

[
  {
    "Smiles": "Cc1ccc2c(c1)C(=O)[C@@]1(O)CCN(c3ccccc3)C1=N2",
    "residual activity, %": 82
  },
  {
    "Smiles": "NCC(=O)Nc1ccc(-n2nc(C(F)(F)F)cc2-c2ccc3c(ccc4ccccc43)c2)cc1",
    "residual activity, %": 95
  },
  {
    "Smiles": "Cc1cccc(Nc2nn(C)c3ncnc(N)c23)c1",
    "residual activity, %": 104
  },
  {
    "Smiles": "C[C@H]1CCCC(=O)CCC/C=C/c2cc(O)cc(O)c2C(=O)O1",
    "residual activity, %": 92
  }
]

====

Tested on: ROCK2 (rat)
Method: radiometric filter-binding kinase assay
Recorded conditions: compound 1.0 µM; accession and sequence are those of the human protein
Think of 90% as a floor: if residual activity stands on it or above, it is t; beneath it, f.

[
  {
    "Compound": "O=c1c(O)c(-c2ccc(O)c(O)c2)oc2cc(O)c(O)c(O)c12",
    "Measurement target": "ROCK2 (rat)",
    "Class name": "t"
  },
  {
    "Compound": "CCNc1nc(Nc2cc(F)c(C(=O)N3CCOCC3)cc2OC)ncc1C(F)(F)F",
    "Measurement target": "ROCK2 (rat)",
    "Class name": "f"
  },
  {
    "Compound": "O=C(NCCCNc1nc(Nc2cccc(CN3CCOCC3)c2)ncc1C1CC1)C1CCC1",
    "Measurement target": "ROCK2 (rat)",
    "Class name": "f"
  },
  {
    "Compound": "COc1ccc2c(c1)c1c3c(c4c5ccccc5n(C)c4c1n2CC(O)CN(C)C)C(=O)NC3=O (stereo not given)",
    "Measurement target": "ROCK2 (rat)",
    "Class name": "t"
  },
  {
    "Compound": "Cc1cccc(-c2nn(C(=S)Nc3ccccc3)cc2-c2ccnc3ccccc23)n1",
    "Measurement target": "ROCK2 (rat)",
    "Class name": "t"
  },
  {
    "Compound": "CCCCCc1ccc(/C=C/[C@H](O)[C@@H](CO)NC)cc1",
    "Measurement target": "ROCK2 (rat)",
    "Class name": "t"
  },
  {
    "Compound": "O=C(NOC[C@H](O)CO)c1ccc(F)c(F)c1Nc1ccc(I)cc1Cl",
    "Measurement target": "ROCK2 (rat)",
    "Class name": "f"
  },
  {
    "Compound": "O=C(Nc1nc2cc(C(F)(F)F)cc(NC3CC3)n2n1)c1cccnc1",
    "Measurement target": "ROCK2 (rat)",
    "Class name": "t"
  },
  {
    "Compound": "Cc1nc(-c2ccc(OCC(C)C)c(C#N)c2)sc1C(=O)O",
    "Measurement target": "ROCK2 (rat)",
    "Class name": "t"
  },
  {
    "Compound": "NC(=O)c1c(NC(=O)C2CC2)sc2c1CCCC2",
    "Measurement target": "ROCK2 (rat)",
    "Class name": "t"
  }
]
